Target: TLR7/NFKb HEK cells (Homo sapiens)
Sequence (Q9NYK1 27-1049): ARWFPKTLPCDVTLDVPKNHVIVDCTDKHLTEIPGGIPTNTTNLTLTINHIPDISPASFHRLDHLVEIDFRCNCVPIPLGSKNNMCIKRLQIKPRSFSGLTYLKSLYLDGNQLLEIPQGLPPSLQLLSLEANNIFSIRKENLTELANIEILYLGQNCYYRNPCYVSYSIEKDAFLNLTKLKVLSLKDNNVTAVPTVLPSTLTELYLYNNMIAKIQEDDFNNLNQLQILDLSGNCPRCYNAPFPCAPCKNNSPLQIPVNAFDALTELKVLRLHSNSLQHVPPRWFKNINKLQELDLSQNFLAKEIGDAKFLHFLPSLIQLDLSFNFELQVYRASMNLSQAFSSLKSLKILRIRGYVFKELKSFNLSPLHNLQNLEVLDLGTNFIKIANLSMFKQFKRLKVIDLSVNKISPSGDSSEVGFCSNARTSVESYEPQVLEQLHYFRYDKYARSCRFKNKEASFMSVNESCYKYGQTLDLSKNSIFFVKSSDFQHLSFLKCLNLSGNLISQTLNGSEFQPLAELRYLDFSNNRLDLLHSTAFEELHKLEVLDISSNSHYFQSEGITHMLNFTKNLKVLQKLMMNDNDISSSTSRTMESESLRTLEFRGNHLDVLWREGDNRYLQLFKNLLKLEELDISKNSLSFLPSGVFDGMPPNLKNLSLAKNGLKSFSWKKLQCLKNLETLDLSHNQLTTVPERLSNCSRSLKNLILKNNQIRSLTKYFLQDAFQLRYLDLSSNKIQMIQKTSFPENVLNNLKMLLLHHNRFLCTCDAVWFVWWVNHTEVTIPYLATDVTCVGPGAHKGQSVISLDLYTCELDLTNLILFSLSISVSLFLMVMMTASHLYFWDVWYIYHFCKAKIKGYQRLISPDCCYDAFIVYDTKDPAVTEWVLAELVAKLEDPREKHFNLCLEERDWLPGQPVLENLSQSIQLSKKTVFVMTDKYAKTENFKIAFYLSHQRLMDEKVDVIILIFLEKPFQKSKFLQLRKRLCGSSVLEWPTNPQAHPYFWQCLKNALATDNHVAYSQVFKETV
Test: HEK Cell Assay (TLR7/NFKb reporter, Steady-Glo luciferase readout)
Conditions: 30 min compound preincubation, then R*48 agonist for 5 hours, read-out: Potency
Counter-ions that a name gives are not always drawn.
PROPERTY: IC50

COMPOUND	RESULT
CCN(CC)CCC(=O)NC1CCN(c2ccnc3nccnc23)CC1	> 10000 nM
CN1CCC(CC(=O)N[C@H]2C[C@@H](C(F)(F)F)CN(c3ccc(C#N)c4ncccc34)C2)CC1 (relative stereo)	< 1000 nM
C[C@H]1C[C@@H](NC(=O)C(O)C2CC2)CN(c2ccc(C(F)(F)F)c3ncccc23)C1 (single isomer, unassigned) [Compound 520]	< 1000 nM
C[C@H]1C[C@@H](NC(=O)CC(C)(C)CN)CN(c2ccc(C(F)F)c3ncccc23)C1	< 1000 nM
O=C(NCC1CCN(c2ccnc3nccnc23)CC1)c1ccccn1	> 10000 nM
N#Cc1ccc(N2CCC(C(=O)NCCN3CCCCC3)CC2)c2nccnc12	< 1000 nM
C[C@H]1C[C@@H](NC(=O)C2CCN(C)C2)CN(c2ccc(C#N)c3nccnc23)C1 (stereo partly drawn)	< 1000 nM
CC(C)C(C)C(=O)N[C@@H]1C[C@H](C)CN(c2ccnc3nccnc23)C1 (stereo partly drawn)	> 10000 nM
CN(C)CC(=O)NC1CN(c2ccc(C#N)c3ncccc23)CC(F)(F)C1 (single isomer, unassigned) [Compound 449]	< 1000 nM
C[C@H]1C[C@@H](NC(=O)C(N)C(F)(F)F)CN(c2ccc(C(F)F)c3ncccc23)C1 (single isomer, unassigned) [Compound 208]	< 1000 nM
CC(C(=O)N[C@@H]1C[C@H](C)CN(c2ccc(C#N)c3nccnc23)C1)N1CC(N)C1 (stereo partly drawn)	< 1000 nM
CC(C)(C)OCC(=O)NCC1CCN(c2ccc(C#N)c3ncccc23)CC1	> 10000 nM
OC1CCC(NC2CC(C(F)(F)F)CN(c3ccnc4nccnc34)C2)CC1 (single isomer, unassigned) [Compound 94]	> 10000 nM
C[C@H]1C[C@@H](N)CN(c2ccnc3nccnc23)C1	< 1000 nM
C[C@@H]1CN(c2ccc(C#N)c3nccnc23)C[C@H](CN2CCN(C)CC2)O1	< 1000 nM
C[C@H]1C[C@@H](NC(=O)CC2CCN(C)CC2)CN(c2ccc(C(F)F)c3nccnc23)C1	< 1000 nM
C[C@@H]1CN(c2ccc(C#N)c3nccnc23)C[C@H](CN2CCC(N3CCCCC3)CC2)O1	< 1000 nM
Cc1c(F)cc(N2C[C@@H](C)C[C@@H](N)C2)c2cccnc12 [Compound 488, hydrochloride]	< 1000 nM
C[C@H]1C[C@@H](NC(=O)C2CC(F)(F)C2)CN(c2ccc(C(F)(F)F)c3ncccc23)C1	< 1000 nM
CN1CCN(CC(=O)N[C@H]2C[C@@H](C(F)(F)F)CN(c3ccc(C#N)c4nccnc34)C2)CC1 (relative stereo)	< 1000 nM
CC(C)[C@@H](O)C(=O)N[C@@H]1C[C@H](C)CN(c2ccc(C#N)c3nccnc23)C1	< 1000 nM
CC(C)(O)CC(=O)N[C@@H]1C[C@H](C(F)(F)F)CN(c2ccc(C#N)c3ncccc23)C1 (racemic)	1000 to 10000 nM
C[C@H]1C[C@@H](NC(=O)CN(C)C)CN(c2ccc(F)c3ncccc23)C1	1000 to 10000 nM
CCN(CC)CC(=O)NC1CCN(c2ccnc3nccnc23)CC1	1000 to 10000 nM
CC(C)[C@@H](O)C(=O)N[C@H]1CN(c2ccc(C#N)c3nccnc23)CC(C)(C)C1	< 1000 nM
CN1CCCC1CNC(=O)C1CCN(c2ccc(C(F)(F)F)c3ncccc23)CC1 (stereo not drawn)	< 1000 nM
C[C@H]1C[C@@H](NC(=O)CC2CCN(C)CC2)CN(c2ccc(F)c3ncccc23)C1	< 1000 nM
CCC(C)C(=O)N[C@@H]1C[C@H](C)CN(c2ccc(C#N)c3nccnc23)C1 (single isomer, unassigned) [Compound 155]	1000 to 10000 nM
CC(C)[C@H](O)C(=O)NC1CC(C(F)(F)F)CN(c2ccc(C#N)c3ncccc23)C1 (single isomer, unassigned) [Compound 430]	< 1000 nM
C[C@H]1C[C@@H](NC(=O)CC2(C)CCN(C)CC2)CN(c2ccc(C(F)(F)F)c3ncccc23)C1	< 1000 nM
